# Test system: Pseudomonas aeruginosa
# assay.info: Antibacterial activity against Pseudomonas aeruginosa
# Assay type: functional
readout.type: log10 of MIC (log10 of the value in µg/mL)

1. O=C(O)c1cn(C2CC2)c2cc(N3CCN(Cn4nc(-c5ccccn5)oc4=S)CC3)c(F)cc2c1=O    -1.51
2. O=C(CN1CCN(c2cc3c(cc2F)c(=O)c(C(=O)O)cn3-c2ccc(F)cc2)CC1)c1ccc(Cl)cc1    -0.30
3. CCn1cc(C(=O)O)c(=O)c2cc(F)c(N3CCN(C(=O)CN4C(=O)S/C(=C\c5ccc(OC)cc5)C4=O)CC3)cc21    -0.60
4. O=C(O)c1cn(C2CC2)c2cc(N3CCN(Cn4nc(-c5cccnc5)oc4=S)CC3)c(F)cc2c1=O    -1.51
5. O=C(O)c1cn(C2CC2)c2cc(N3CCN(Cc4c(O)ccc5ccccc45)CC3)c(F)cc2c1=O    -1.92
6. O=C(CSC(=S)N1CCN(c2cc3c(cc2F)c(=O)c(C(=O)O)cn3C2CC2)CC1)Nc1cccc(Cl)c1    -0.71
7. C=Cn1c(SCC(=O)N2CCN(c3cc4c(cc3F)c(=O)c(C(=O)O)cn4C3CC3)CC2)nnc1-c1ccccc1    0.15

----------
# Test system: Pseudomonas aeruginosa
# assay.info: Antibacterial activity against Pseudomonas aeruginosa
# Assay type: functional
Listed below: MIC values for each entry.
readout.type: MIC (µg/mL)

1) O=C(O)c1cn(C2CC2)c2cc(N3CCN(CN4c5ccccc5C(=O)N(c5ccc(Br)cc5)C4c4ccccc4)CC3)c(F)cc2c1=O (centres undefined)    0.1
2) CCN1CCN(c2cc3c(cc2F)c(=O)c(C(=O)O)cn3CC)CC1    1.1

----------
# System: Staphylococcus aureus
# assay.info: Antibacterial activity against Staphylococcus aureus
# Format: functional
readout.type: MIC

1) CO/N=C1/C(=O)N(Cc2cn(CC(=O)N3CCN(c4c(F)cc5c(=O)c(C(=O)O)cn(C6CC6)c5c4OC)CC3C)nn2)c2ccc(F)cc21 (configuration not stated)    0.06 µg/mL
2) COc1c(N2C[C@H]3CCCN(Cc4ccc(C)cc4)[C@H]3C2)c(F)cc2c(=O)c(C(=O)O)cn(C3CC3)c12    < 2.39 µg/mL
3) CCOc1cc(OCC)nc(/N=N/N2CCN(c3cc4c(cc3F)c(=O)c(C(=O)C(C(=O)OC)C(=O)OC)cn4C3CC3)CC2)n1    0.015 µg/mL
4) O=C(O)c1cn(C2CC2)c2cc(N3CCN(CN4c5ccccc5C(=O)N(c5ccc(Br)cc5)C4c4ccccc4)CC3)c(F)cc2c1=O (configuration not stated)    0.1 µg/mL
5) COc1c(N2CCN(/N=N/c3nc(C)cc(C)n3)CC2)c(F)cc2c(=O)c(C(=O)C(C(C)=O)C(C)=O)cn(C3CC3)c12    0.015 µg/mL
6) COc1c(N2C[C@H]3CCCN(S(=O)(=O)c4ccccc4)[C@H]3C2)c(F)cc2c(=O)c(C(=O)O)cn(C3CC3)c12    < 2.42 µg/mL
7) O=C(O)c1cn(C2CC2)c2cc(N3CCN(Cc4nc5cc(Cl)ccc5c(=O)[nH]4)CC3)c(F)cc2c1=O    0.016 µg/mL

----------
# System: Pseudomonas aeruginosa
# assay.info: Antibacterial activity against Pseudomonas aeruginosa
# Type: functional
readout.type: MIC

1. O=C(O)c1cn(C2CC2)c2cc(N3CCN(CN4c5ccccc5C(=O)N(c5ccc(Cl)cc5)C4c4ccccc4)CC3)c(F)cc2c1=O (stereo not drawn)    0.1 µg/mL
2. COc1c(N2C[C@H]3CCCN(S(=O)(=O)c4ccc(C)cc4)[C@H]3C2)c(F)cc2c(=O)c(C(=O)O)cn(C3CC3)c12    < 2.42 µg/mL
3. COc1c(N2C[C@H]3CCCN(S(=O)(=O)c4ccc([N+](=O)[O-])cc4)[C@H]3C2)c(F)cc2c(=O)c(C(=O)O)cn(C3CC3)c12    < 2.42 µg/mL
